measurement protocol: AUC (0 to infinity) in Sprague Dawley rat at 2 mg/kg, iv measured after 24 hrs
Assay type: ADME, organism-based
Design: route intravenous, time 24 hrs, dose 2 mg/kg
assay context: in vivo
readout label: AUC(0-inf) (ng·h/mL)
Value expressed in ng·h/mL; do not type the unit.

Query block: Entry CC(C)Oc1cc(F)ccc1Nc1ncnc2ccc(-c3ccc(C(=O)N4CCNCC4)cc3)nc12 : reported AUC(0-inf) = ?
Result block: 1720

====

tested target: MAP kinase-interacting serine/threonine-protein kinase 2 (Homo sapiens)
Sequence (Q9HBH9 whole entry, the tested form may be a part): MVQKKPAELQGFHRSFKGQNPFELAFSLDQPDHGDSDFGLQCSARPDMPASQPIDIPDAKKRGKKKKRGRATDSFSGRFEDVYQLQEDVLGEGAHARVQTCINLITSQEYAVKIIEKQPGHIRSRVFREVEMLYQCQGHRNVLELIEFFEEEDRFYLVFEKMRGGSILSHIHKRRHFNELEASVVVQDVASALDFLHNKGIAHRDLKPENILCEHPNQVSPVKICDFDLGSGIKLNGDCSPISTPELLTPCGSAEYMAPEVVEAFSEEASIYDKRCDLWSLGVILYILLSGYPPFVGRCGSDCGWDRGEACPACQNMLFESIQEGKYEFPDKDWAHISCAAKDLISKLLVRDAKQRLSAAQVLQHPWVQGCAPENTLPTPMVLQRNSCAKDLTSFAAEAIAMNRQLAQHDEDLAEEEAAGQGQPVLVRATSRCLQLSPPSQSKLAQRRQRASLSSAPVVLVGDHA
measurement protocol: Inhibition of wild type human partial length MKN2 (G63 to S388 residues) expressed in mammalian expression system by HTRF method
readout label: IC50 (nM)
Give the value, in units of nM, as a plain number.

Query block: What IC50 value was documented for this compound, CC(C)Oc1cc(F)ccc1Nc1ncnc2ccc(-c3ccc(C(=O)N4CCNCC4)cc3)nc12 ?
Result block: 7

All figures here come from ChEMBL document CHEMBL4825757.
